Entries and their measured kon follow.
# target-desc: T1, recombinant cynomolgus monkey PD-L1 with a C-terminal myc-myc-hexahistidine tag (cynomolgus monkey (Macaca fascicularis))
# T1 construct: also called MfPD-L1-MMH; MfPD-L1-MMH Monomer
# T1 sequence (chain, as listed by the source limits assumed): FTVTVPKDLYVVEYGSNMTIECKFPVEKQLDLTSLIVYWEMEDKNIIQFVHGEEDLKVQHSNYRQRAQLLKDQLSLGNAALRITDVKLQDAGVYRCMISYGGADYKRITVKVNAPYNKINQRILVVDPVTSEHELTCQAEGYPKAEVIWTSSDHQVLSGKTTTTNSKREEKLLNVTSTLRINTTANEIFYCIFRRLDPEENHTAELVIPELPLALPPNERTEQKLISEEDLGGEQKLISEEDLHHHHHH
# experiment-summary: SPR (Biacore), mAb captured, 37C
Number only, in M⁻¹ s⁻¹; omit the unit.

Past entries and their recorded results:
H2aM8317N (antibody, mouse IgG2, V domains shown, also called H2M8317N) VH: EVQLVESGGGLVQPGGSLRLSCAASGFTVGSNYMNWVRQAPGKGLEWVSVIYSGGSTYYADSVKGRFTISRLTSKNTLYLQMSSLRPEDTAVYYCARGIRGLDVWGQGTTVTVSS VL: DIQMTQSPSSLSASVGDRVTITCRASQTINIYLNWYQQKPGRAPRLLIYAASSLQSGVPSRFSGSGSGTDFTLTISSLQPEDFATYYCHQSYSTPPITFGQGTRLEIK
266000
H1H9329P (antibody, human IgG1, V domains shown) VH: EVQLVESGGGLVQSGGSLRLSCAASGFTFSSYWMSWVRQAPGKGLEWVANIKQDGSEKYYVDSVKGRFTISRDNAKNSLYLQMNSLRADDTAVYYCARDDIVVVPAPMGYYYYYFGMDVWGQGTTVTVSS VL: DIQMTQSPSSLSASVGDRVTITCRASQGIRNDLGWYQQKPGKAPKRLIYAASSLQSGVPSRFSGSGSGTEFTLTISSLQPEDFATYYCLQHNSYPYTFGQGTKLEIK
2.66e+06

Proceeding to the next binder to report its kon.
Endpoint output: kon of H2aM8321N (antibody, mouse IgG2, V domains shown, also called H2M8321N) VH: EERLVESGGDLVQPGGSLRLSCAASGITVGTNYMNWVRQAPGKGLEWVSVISSGGNTHYADSVKGRFIMSRQTSKNTLYLQMNSLETEDTAVYYCARGIRGLDVWGQGTMVTVSS VL: DIQMTQSPSSLSASVGDRVTITCRASQSMSSYLNWYQQKPGRAPKLLIFAASSLQSGVPSRFSGSGSGTDFTLTISSLQPEDFATYYCQQSYSTPPITFGQGTRLEIK . Value? 159000
